Assay: Cell cytotoxic test (MTT) on Huh-luc/neo-ET cells
Type: cell-based
Conditions: human, concentration for 50% cell kill, two-day culture
# reported CC50 at 2 days; entries follow

[
  {
    "compound": "C=CC(C)(O)CC/C=C(\\C)C(=O)OC1C(OCC2OC(OC(=O)C34CCC(C)(C)CC3C3=CCC5C6(C)CCC(OC7OC(COC8OCC(O)C(O)C8OC8OCC(O)C(O)C8O)C(O)C(O)C7O)C(C)(C)C6CCC5(C)C3(C)CC4O)C(OC3OC(C)C(OC4OCC(O)C(OC5OCC(O)C(O)C5O)C4O)C(O)C3O)C(OC(=O)/C(C)=C/CCC(C)(O)C=C)C2O)OC(C)C(O)C1O (stereo not shown)",
    "unit name": "µM",
    "modifier": "=",
    "CC50 at 2 days": 56.7
  },
  {
    "compound": "CC1(C)CC2C3=CCC4[C@@]5(C)CC[C@H](OC6OCC(O)C(OC7OC(CO)C(O)C(O)C7O)C6O)C(C)(C)C5CC[C@@]4(C)[C@]3(C)C[C@H](O)[C@@]2(CO)[C@H](OC(=O)c2ccccc2)C1 (stereo partly shown)",
    "unit name": "µM",
    "modifier": "=",
    "CC50 at 2 days": 40
  },
  {
    "compound": "CC1(C)CC[C@]2(C(=O)O)CC[C@]3(C)C(=CCC4[C@@]5(C)C[C@@H](O)[C@H](OC(=O)/C=C/c6ccc(O)cc6)C(C)(C)C5CC[C@]43C)C2C1 (stereo partly shown)",
    "unit name": "µM",
    "modifier": "=",
    "CC50 at 2 days": 26.1
  },
  {
    "compound": "C/C=C(/C)C(=O)OC1CC(C)(C)CC2C3=CCC4C5(C)CCC(OC6OC(C)C(OC7OC(C(=O)O)C(O)C(OC8OC(CO)C(O)C(O)C8OC8OC(CO)C(O)C(O)C8O)C7O)C(O)C6O)C(C)(C)C5CCC4(C)C3(C)C(OC(=O)/C=C/C=C/C=C/CCC)C(O)C12CO (stereo not shown)",
    "unit name": "µM",
    "modifier": ">",
    "CC50 at 2 days": 100
  },
  {
    "compound": "C=CC(C)(O)CC/C=C(\\C)C(=O)OC1C(O)C(CO)OC(OC(=O)C23CCC(C)(C)CC2C2=CCC4C5(C)CCC(OC6OC(COC7OCC(O)C(O)C7OC7OCC(O)C(O)C7O)C(O)C(O)C6O)C(C)(C)C5CCC4(C)C2(C)CC3O)C1OC1OC(CO)C(OC2OCC(O)C(OC3OCC(O)C(O)C3O)C2O)C(O)C1O (stereo not shown)",
    "unit name": "µM",
    "modifier": "=",
    "CC50 at 2 days": 38.4
  },
  {
    "compound": "C=CC(C)(O)CCCC(C)C(=O)OC1C(C)OC(OC(C)(C=C)CC/C=C(\\CO)C(=O)OC2CC3(C(=O)OC4OCC(OC5OC(CO)C(O)C(OC6OC(CO)C(OC7OC(C)C(O)C(O)C7O)C(O)C6O)C5O)C(O)C4O)CCC4(C)C(=CCC5C6(C)CCC(OC7OC(CO)C(OC8OC(CO)C(O)C(OC9OCC(O)C(O)C9O)C8O)C(O)C7O)C(C)(C)C6CCC54C)C3CC2(C)C)C(O)C1O (stereo not shown)",
    "unit name": "µM",
    "modifier": "=",
    "CC50 at 2 days": 38.1
  },
  {
    "compound": "C=CC(C)(O)CC/C=C(\\C)C(=O)OC1C(O)C(CO)OC(OC(=O)C23CCC(C)(C)CC2C2=CCC4C5(C)CCC(OC6OC(COC7OCC(OC(C)=O)C(O)C7OC7OC(COC(C)=O)C(O)C(O)C7OC(C)=O)C(O)C(O)C6OC6OCC(O)C(O)C6O)C(C)(C)C5CCC4(C)C2(C)C(O)C3O)C1OC1OCC(OC2OCC(O)C(OC3OCC(O)C(O)C3O)C2O)C(O)C1O (stereo not shown)",
    "unit name": "µM",
    "modifier": "=",
    "CC50 at 2 days": 17.9
  }
]
